- Tested on: human Fc (human)
- Procedure text: ELISA, negative control
Please provide measured optical density for the entries that follow.
Write down the numeric answer in OD and omit the unit.

Fill in: optical density of 374_H01 (antibody, V domains shown) VH: EVQLLESGGGLVQPGGSLRLSCAASGFTFDSYSMNWVRQAPGKGLEWVAGINYNGGYTSYADSVKGRFTISRDNSKNTLYLQMNSLRAEDTAVYYCARGANWHDTHLDYWGQGTLVTVSS VL: DIQMTQSPSSLSASVGDRVTITCRASQSILSYLNWYQQKPGKAPKLVIYAATSLASGVPSRFSGSGSGTDFTLTISSLQPEDFATYYCQQSYENPLTFGGGTKVEIK is ___
0.251

Fill in: optical density of 371_B12 (antibody, V domains shown) VH: EVQLLESGGGLVQPGGSLRLSCAASGFTFSDYSMNWVRQAPGKGLEWVAGINYNSGYTSYADSVKGRFTISRDNSKNTLYLQMNSLRAEDTAVYYCARGANWHDTALDYWGQGTLVTVSS VL: DIQMTQSPSSLSASVGDRVTITCRASQSIVTYLNWYQQKPGKAPKLVIYAATSRHSGVPSRFSGSGSGTDFTLTISSLQPEDFATYYCQQSYNNPLTFGGGTKVEIK is ___
0.378

Fill in: optical density of 367_D06 (antibody, V domains shown) VH: EVQLLESGGGLVQPGGSLRLSCAASGFTFDSYSMNWVRQAPGKGLEWVAGINYNGGYTSYADSVKGRFTISRDNSKNTLYLQMNSLRAEDTAVYYCARGANWHDTHLDYWGQGTLVTVSS VL: DIQMTQSPSSLSASVGDRVTITCRASQSISTYLNWYQQKPGKAPKLVIYAATSLASGVPSRFSGSGSGTDFTLTISSLQPEDFATYYCQQSYNSPLTFGGGTKVEIK is ___
0.283

Fill in: optical density of 374_B11 (antibody, V domains shown) VH: EVQLLESGGGLVQPGGSLRLSCAASGFTFSSYSMNWVRQAPGKGLEWVSGINYNSGYKSYADSVKGRFTISRDNSKNTLYLQMNSLRAEDTAVYYCARSATWHDTHLDYWGQGTLVTVSS VL: DIQMTQSPSSLSASVGDRVTITCRASQSILTYVNWYQQKPGKAPKLVIYAATSRASGVPSRFSGSGSGTDFTLTISSLQPEDFATYYCQQSYDLPLTFGGGTKVEIK is ___
0.17

Fill in: optical density of 371_F12 (antibody, V domains shown) VH: EVQLLESGGGLVQPGGSLRLSCAASGFTFDSYSMNWVRQAPGKGLEWVSNINYNGGYKSYADSVKGRFTISRDNSKNTLYLQMNSLRAEDTAVYYCARSATWHDTHLDYWGQGTLVTVSS VL: DIQMTQSPSSLSASVGDRVTITCRASQSIISYLNWYQQKPGKAPKLLIYAATSRASGVPSRFSGSGSGTDFTLTISSLQPEDFATYYCQQSNNLPLTFGGGTKVEIK is ___
0.413

Fill in: optical density of 370_B11 (antibody, V domains shown) VH: EVQLLESGGGLVQPGGSLRLSCAASGFTFDSYSMNWVRQAPGKGLEWVSGINYNSGYTSYADSVKGRFTISRDNSKNTLYLQMNSLRAEDTAVYYCARGANWHDTHLDYWGQGTLVTVSS VL: DIQMTQSPSSLSASVGDRVTITCRASQSILSYLNWYQQKPGKAPKLVIYAATSRHSGVPSRFSGSGSGTDFTLTISSLQPEDFATYYCQQGYDLPLTFGGGTKVEIK is ___
0.326

Fill in: optical density of 374_F08 (antibody, V domains shown) VH: EVQLLESGGGLVQPGGSLRLSCAASGFTFDSYSMNWVRQAPGKGLEWVSGINYNGGYKSYADSVKGRFTISRDNSKNTLYLQMNSLRAEDTAVYYCARGANWHDTALDYWGQGTLVTVSS VL: DIQMTQSPSSLSASVGDRVTITCRASQSILTYVNWYQQKPGKAPKLVIYAVTSRASGVPSRFSGSGSGTDFTLTISSLQPEDFATYYCQQSYDTPLTFGGGTKVEIK is ___
0.211

Fill in: optical density of 365_H07 (antibody, V domains shown) VH: EVQLLESGGGLVQPGGSLRLSCAASGFTFDSYSMNWVRQAPGKGLEWVSGINYNGGYTSYADSVKGRFTISRDNSKNTLYLQMNSLRAEDTAVYYCARGANWHDTHLDYWGQGTLVTVSS VL: DIQMTQSPSSLSASVGDRVTITCRASQSISTYVNWYQQKPGKAPKLLIYAATSRHSGVPSRFSGSGSGTDFTLTISSLQPEDFATYYCQQSYENPLTFGGGTKVEIK is ___
0.33

Fill in: optical density of 367_D02 (antibody, V domains shown) VH: EVQLLESGGGLVQPGGSLRLSCAASGFTFDDYSMNWVRQAPGKGLEWVSNINYNGGYTSYADSVKGRFTISRDNSKNTLYLQMNSLRAEDTAVYYCARSATWHDTHLDYWGQGTLVTVSS VL: DIQMTQSPSSLSASVGDRVTITCRASQSIVTYVNWYQQKPGKAPKLLIYAATSRASGVPSRFSGSGSGTDFTLTISSLQPEDFATYYCQQSYENPLTFGGGTKVEIK is ___
0.321

Fill in: optical density of 374_E12 (antibody, V domains shown) VH: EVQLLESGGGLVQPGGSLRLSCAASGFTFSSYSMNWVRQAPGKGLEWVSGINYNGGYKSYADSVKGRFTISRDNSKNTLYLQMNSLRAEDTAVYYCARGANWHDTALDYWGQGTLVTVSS VL: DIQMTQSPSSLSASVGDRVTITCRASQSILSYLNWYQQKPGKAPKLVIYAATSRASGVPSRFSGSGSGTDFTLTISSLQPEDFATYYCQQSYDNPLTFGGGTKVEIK is ___
0.177
